- TARGET DESC: Protein kinase C delta type (Homo sapiens)
- Sequence (Q05655 whole entry): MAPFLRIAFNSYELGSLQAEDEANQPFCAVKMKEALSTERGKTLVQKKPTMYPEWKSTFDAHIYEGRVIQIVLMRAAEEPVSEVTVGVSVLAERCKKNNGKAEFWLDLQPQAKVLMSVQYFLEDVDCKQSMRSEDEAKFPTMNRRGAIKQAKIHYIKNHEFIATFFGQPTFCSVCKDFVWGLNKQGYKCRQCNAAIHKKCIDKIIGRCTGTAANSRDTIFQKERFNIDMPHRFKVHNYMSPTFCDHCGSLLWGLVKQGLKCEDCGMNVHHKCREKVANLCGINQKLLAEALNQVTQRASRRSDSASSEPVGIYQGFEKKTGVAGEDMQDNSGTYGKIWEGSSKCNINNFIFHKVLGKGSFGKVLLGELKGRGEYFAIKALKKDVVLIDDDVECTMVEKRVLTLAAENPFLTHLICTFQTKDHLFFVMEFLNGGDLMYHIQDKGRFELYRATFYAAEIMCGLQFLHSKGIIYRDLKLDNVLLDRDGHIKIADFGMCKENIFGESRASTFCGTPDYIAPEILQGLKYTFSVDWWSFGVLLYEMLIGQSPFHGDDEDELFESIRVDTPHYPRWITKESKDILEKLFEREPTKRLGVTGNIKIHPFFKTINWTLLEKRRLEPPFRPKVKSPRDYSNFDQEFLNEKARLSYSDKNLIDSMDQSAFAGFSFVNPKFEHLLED
- EXPERIMENT: Inhibition of Protein kinase C delta
TEST READOUT: IC50 (nM)
The response must be a number in nM with no trailing unit.

O=C1NC(=O)C2=C1c1cn(c3ccccc13)CCO[C@H](CN1CCCC1)CCn1cc2c2ccccc21 : 3300
CN1CCN(C[C@@H]2CCn3cc(c4ccccc43)C3=C(C(=O)NC3=O)c3cn(c4ccccc34)CCO2)CC1 : 2800
NC[C@@H]1CCn2cc(c3ccccc32)C2=C(C(=O)NC2=O)c2cn(c3ccccc23)CCO1 : 2600

Lab note: next compound to report on.
The compound identified as O=C1NC(=O)C2=C1c1cn(c3ccccc13)CCO[C@H](CNS(=O)(=O)c1ccccc1)CCn1cc2c2ccccc21 registered its IC50 at 880

----------
- EXPERIMENT: Effective dose against plasminogen activator activity stimulated by phorbol ester in endothelial cells
- Assay type: functional
- APPLIED CONDITIONS: Endothelial cell; read-out: ED50 (the source's name)
Decide using EC50 alone. Strictly below 4000 nM: Met. Equal to or above 4000 nM: Not met.

Illustrative cases are given below, each with its answer.
NC[C@@H]1CCn2cc(c3ccccc32)C2=C(C(=O)NC2=O)c2cn(c3ccccc23)CCO1 : Not met
CN1CCN(C[C@@H]2CCn3cc(c4ccccc43)C3=C(C(=O)NC3=O)c3cn(c4ccccc34)CCO2)CC1 : Met
O=C1NC(=O)C2=C1c1cn(c3ccccc13)CCO[C@H](CO)CCn1cc2c2ccccc21 : Met
CNC[C@@H]1CCn2cc(c3ccccc32)C2=C(C(=O)NC2=O)c2cn(c3ccccc23)CCO1 : Met
O=C1NC(=O)C2=C1c1cn(c3ccccc13)CCO[C@H](CN1CCCC1)CCn1cc2c2ccccc21 : Met
O=C1NC(=O)C2=C1c1cn(c3ccccc13)CCO[C@H](CN1CCOCC1)CCn1cc2c2ccccc21 : Met

Q: Consider the compound O=C1NC(=O)C2=C1c1cn(c3ccccc13)CCO[C@H](CNCc1ccccc1)CCn1cc2c2ccccc21 . Is its EC50 strictly less than 4000 nM?
A: Not met

Q: Consider CN(C)C[C@@H]1CCn2cc(c3ccccc32)C2=C(C(=O)NC2=O)c2cn(c3ccccc23)CCO1 . Does its EC50 lie strictly below 4000 nM?
A: Met

----------
- TARGET DESC: Protein kinase C eta type (Homo sapiens, UniProt P24723)
- Sequence (P24723 whole entry): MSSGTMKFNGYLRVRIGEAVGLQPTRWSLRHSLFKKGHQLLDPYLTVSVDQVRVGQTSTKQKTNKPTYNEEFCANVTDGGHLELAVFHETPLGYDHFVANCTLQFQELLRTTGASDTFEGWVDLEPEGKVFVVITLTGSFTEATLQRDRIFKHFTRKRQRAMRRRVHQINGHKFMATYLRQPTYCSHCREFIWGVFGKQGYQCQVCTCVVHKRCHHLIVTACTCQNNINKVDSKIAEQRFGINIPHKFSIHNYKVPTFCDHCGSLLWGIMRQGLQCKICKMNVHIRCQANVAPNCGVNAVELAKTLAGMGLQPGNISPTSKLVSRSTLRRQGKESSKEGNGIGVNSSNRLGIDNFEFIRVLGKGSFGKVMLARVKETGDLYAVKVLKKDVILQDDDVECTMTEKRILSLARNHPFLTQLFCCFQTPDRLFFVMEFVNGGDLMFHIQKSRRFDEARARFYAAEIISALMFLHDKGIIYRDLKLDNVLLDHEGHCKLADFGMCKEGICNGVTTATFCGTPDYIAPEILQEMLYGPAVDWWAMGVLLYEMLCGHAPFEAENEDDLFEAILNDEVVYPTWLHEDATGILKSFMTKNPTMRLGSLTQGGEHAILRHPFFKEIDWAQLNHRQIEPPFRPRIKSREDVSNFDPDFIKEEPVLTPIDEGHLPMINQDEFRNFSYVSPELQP
pIC50: −log10 of the molar value.
true (1) means recorded pIC50 is 6 or above; false (0) means it is below 6.

Worked examples follow.
NC[C@@H]1CCn2cc(c3ccccc32)C2=C(C(=O)NC2=O)c2cn(c3ccccc23)CCO1 : true (1)
CN1CCN(C[C@@H]2CCn3cc(c4ccccc43)C3=C(C(=O)NC3=O)c3cn(c4ccccc34)CCO2)CC1 : false (0)
O=C1NC(=O)C2=C1c1cn(c3ccccc13)CCO[C@H](CN1CCOCC1)CCn1cc2c2ccccc21 : false (0)
O=C1NC(=O)C2=C1c1cn(c3ccccc13)CCO[C@H](CN1CCCC1)CCn1cc2c2ccccc21 : true (1)
CN(C)C[C@@H]1CCn2cc(c3ccccc32)C2=C(C(=O)NC2=O)c2cn(c3ccccc23)CCO1 : true (1)
O=C1NC(=O)C2=C1c1cn(c3ccccc13)CCO[C@H](CNS(=O)(=O)c1ccccc1)CCn1cc2c2ccccc21 : false (0)

Q: pIC50 >= 6 for O=C1NC(=O)C2=C1c1cn(c3ccccc13)CCO[C@H](CNCc1ccccc1)CCn1cc2c2ccccc21 ?
A: false (0)

Q: # check: pIC50 of CNC[C@@H]1CCn2cc(c3ccccc32)C2=C(C(=O)NC2=O)c2cn(c3ccccc23)CCO1 is greater than or equal to 6
A: true (1)

Provenance of the data: ChEMBL document CHEMBL1129363
